Some compounds, each annotated with its measured pEC50.
# study.system: hTRPM8 (Homo sapiens, UniProt Q7Z2W7)
# Sequence (Q7Z2W7 whole entry): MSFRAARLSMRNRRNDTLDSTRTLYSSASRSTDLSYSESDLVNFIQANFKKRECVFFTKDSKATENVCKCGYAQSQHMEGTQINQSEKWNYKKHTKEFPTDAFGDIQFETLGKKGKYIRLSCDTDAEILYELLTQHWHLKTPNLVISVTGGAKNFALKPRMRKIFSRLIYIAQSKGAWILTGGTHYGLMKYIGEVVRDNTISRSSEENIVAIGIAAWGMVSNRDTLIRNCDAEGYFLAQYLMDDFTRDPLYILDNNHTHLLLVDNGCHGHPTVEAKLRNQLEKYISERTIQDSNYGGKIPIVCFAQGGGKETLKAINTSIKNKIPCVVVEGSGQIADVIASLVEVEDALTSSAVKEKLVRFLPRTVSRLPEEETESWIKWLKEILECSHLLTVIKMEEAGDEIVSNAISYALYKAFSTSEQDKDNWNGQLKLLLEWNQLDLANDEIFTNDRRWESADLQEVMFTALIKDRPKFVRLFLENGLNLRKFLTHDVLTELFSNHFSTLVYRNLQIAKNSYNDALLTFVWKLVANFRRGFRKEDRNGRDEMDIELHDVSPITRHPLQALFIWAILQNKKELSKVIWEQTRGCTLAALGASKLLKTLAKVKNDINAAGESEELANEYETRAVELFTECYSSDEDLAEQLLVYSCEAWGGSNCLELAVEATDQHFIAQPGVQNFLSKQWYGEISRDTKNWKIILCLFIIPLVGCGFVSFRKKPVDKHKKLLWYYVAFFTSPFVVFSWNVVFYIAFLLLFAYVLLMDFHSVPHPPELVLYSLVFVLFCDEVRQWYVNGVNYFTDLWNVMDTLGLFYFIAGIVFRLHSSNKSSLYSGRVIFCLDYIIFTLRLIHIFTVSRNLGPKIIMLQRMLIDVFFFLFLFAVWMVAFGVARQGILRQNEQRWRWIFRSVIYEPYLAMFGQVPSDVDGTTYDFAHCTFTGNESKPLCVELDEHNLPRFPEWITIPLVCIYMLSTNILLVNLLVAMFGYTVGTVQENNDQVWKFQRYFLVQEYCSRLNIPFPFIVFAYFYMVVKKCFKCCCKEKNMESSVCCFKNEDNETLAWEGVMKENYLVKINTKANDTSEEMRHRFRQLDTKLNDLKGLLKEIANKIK
# procedure.text: Assay on TRPM8 modulators: calcium imaging (Fluo-4, Flexstation) in HEK293 cell line stably expressing hTRPM8
# stated.conditions: TRPM8 agonist activity, calcium influx, HEK293 stably expressing hTRPM8, sigmoidal dose-response fit
pEC50: −log10 of the molar value. Where a name gives a salt, the structure may show the parent alone.

| compound | pEC50 |
| --- | --- |
| CC1CCC(OCCN2CCN(C)CC2)C(Cc2ccccc2)C1 (stereo not drawn) [compound 52, dihydrochloride] | 4.46 to 6.00 |
| Cc1ccc(OCCN2CC[S+]([O-])CC2)c(Cc2ccccc2)c1 [compound 160] | 4.46 to 6.00 |
| Cc1ccc(OCCN2CCN(C)CC2)c(Cc2ccccc2C#N)c1 [compound 129] | 6.52 to 7.30 |
| Cc1ccc(CC(O)CN2CCOCC2)c(Oc2ccccc2C#N)c1 (stereo not drawn) [compound 107] | 6.52 to 7.30 |
| Cc1ccc(OCCN2CCOCC2)c(/C=C2\CCCCC2=O)c1 [compound 47] | 6.52 to 7.30 |
| Cc1ccc(OCCN2CCOCC2)c(Cc2ccccc2)c1.Cl [compound 159, hydrochloride] | 4.46 to 6.00 |
| Cc1ccc(OC(C)CN2CCN(C)CC2)c(Cc2ccccc2)c1 (stereo not drawn) [compound 90] | 6.00 to 6.52 |
| Cc1ccc(OCCN2CCN(C)CC2)c(Cc2ccccc2C)c1 [compound 103] | 6.00 to 6.52 |
| CN1CCN(CC2CCc3cccc(Cc4ccccc4)c3O2)CC1 (stereo not drawn) [compound 50] | 4.46 to 6.00 |
